# Read-out: Transforming growth factor beta 1 (TGFb1), TGFB1 (gene 7040)
# Assay Explanation: BSK_KF3CT_TGFb1: BioMAP Diversity Plus: KF3CT Assay for Transforming growth factor beta 1 (TGFb1) Biomarker Activity (AID 2283072)
# Test Context: primary human keratinocytes with fibroblasts; actives raise or lower the signal
# Method: BSK_KF3CT is a cell-based, multiplexed-readout assay that uses keratinocytes and foreskin fibroblasts, a human skin primary cell co-culture, with measurements taken at 24 hours after chemical dosing in a 96-well plate.BSK_KF3CT_TGFb1 is an assay component measured in the BSK_KF3CT assay. It measures TGF-b1 antibody related to regulation of gene expression using ELISA technology.Data from the assay component BSK_KF3CT_TGFb1 was analyzed into 1 assay endpoint. […]
Active and inactive are the calls of the source. Rule for the calls: active = hit-call score of the fitted dose curve at least 0.9, where 1 is the maximum; inactive = score below 0.9.
Possible outcomes: TRUE = active, FALSE = inactive

Compound | Class Label
CC1COC(Cn2cncn2)(c2ccc(Oc3ccc(Cl)cc3)cc2Cl)O1 (stereo not given) | TRUE
O=C(O)c1nc(Cl)ccc1Cl | FALSE
C#CCOS(=O)OC1CCCCC1Oc1ccc(C(C)(C)C)cc1 (stereo not given) | FALSE
CCc1nn(C)c(C(=O)NCc2ccc(C(C)(C)C)cc2)c1Cl | FALSE
CCNc1nc(Cl)nc(NC(C)C)n1 | FALSE
CO/C=C(/C(=O)OC)c1ccccc1Oc1cc(Oc2ccccc2C#N)ncn1 | FALSE
COc1cnc(OC)n2nc(NS(=O)(=O)c3c(OCC(F)F)cccc3C(F)(F)F)nc12 | FALSE
CN(C)C(=S)SSC(=S)N(C)C | TRUE
Cc1ccc(-c2c(Cl)nc(C#N)n2S(=O)(=O)N(C)C)cc1 | FALSE
CC1=C(C(=O)Nc2ccccc2)SCCO1 | FALSE
COC(=O)c1ccccc1C(=O)OC | FALSE
N#CC(CCc1ccc(Cl)cc1)(Cn1cncn1)c1ccccc1 (stereo not given) | FALSE
CCCC1COC(Cn2cncn2)(c2ccc(Cl)cc2Cl)O1 (stereo not given) | FALSE
CS/C(C)=N/OC(=O)N(C)SN(C)C(=O)O/N=C(\C)SC | TRUE
COC(=O)N(OC)c1ccccc1COc1ccn(-c2ccc(Cl)cc2)n1 | FALSE
C=CCC1=C(C)[C@@H](OC(=O)[C@@H]2[C@@H](C=C(C)C)C2(C)C)CC1=O | FALSE
CCOP(=S)(OCC)SCn1c(=O)oc2cc(Cl)ccc21 | FALSE
CCON=C(CC)C1=C(O)CC(c2c(C)cc(C)cc2C)CC1=O (stereo not given) | FALSE
Fc1ccc(Oc2ccnc3cc(Cl)cc(Cl)c23)cc1 | FALSE
Cc1c(F)c(F)c(COC(=O)C2C(/C=C(\Cl)C(F)(F)F)C2(C)C)c(F)c1F (stereo not given) | FALSE
CCCCNC(=O)n1c(NC(=O)OC)nc2ccccc21 | FALSE
CCOC(=O)CC(SP(=S)(OC)OC)C(=O)OCC (stereo not given) | FALSE
OC(c1ccc(Cl)cc1)(c1cncnc1)c1ccccc1Cl (stereo not given) | FALSE
CC(C)C1(C)N=C(c2nc3ccccc3cc2C(=O)O)NC1=O (stereo not given) | FALSE
CC(C)Oc1cc(-n2nc(C(C)(C)C)oc2=O)c(Cl)cc1Cl | FALSE
CC(Oc1ccc(Cl)cc1Cl)C(=O)O (stereo not given) | FALSE
CNC(=O)ON=CC(C)(C)SC | FALSE
CON(C)C(=O)Nc1ccc(Cl)c(Cl)c1 | FALSE
CCOc1cc(Oc2ccc(C(F)(F)F)cc2Cl)ccc1[N+](=O)[O-] | FALSE
COc1nc(NC(C)C)nc(NC(C)C)n1 | FALSE

Just for reference, PubChem BioAssay (EPA / NIEHS) is where these values come from.
